Data credit: PubChem BioAssay (NCI)

System: UACC-62 melanoma
Test: NCI-60 one-dose screen, 48 h (100 = growth as untreated, 0 = no growth, -100 = all killed)
Conditions: 10 µM unless noted
Protocol: Growth inhibition of the UACC-62 human tumor cell line is measured as a screen for anti-cancer activity. Cells are grown in 96 well plates and exposed to the test compound for 48 hours. Compounds are tested at a single concentration, which is 10^-5 M for most compounds. The reported endpoint is percent growth (GI% or GIPRCNT), where numbers from 0 - 100% represent growth inhibition, and numbers from -100% - 0 represent cell death. For example, a value of 40 represents 60% growth inhibition. […]
About 83,000 compounds went through this panel and 20% of them were active in at least one assay; those are over-represented in the sample as a whole.
If the reported growth equals or exceeds 50%, assign 1.0. If not, assign 0.0.

Answered examples (8):
1) C#CC(F)(F)[C@]1(O)CC[C@H]2[C@@H]3CCC4=CC(=O)CCC4=C3[C@@H](c3ccc(C(C)=O)cc3)C[C@@]21C: 1.0
2) CSc1ccc(-c2n[nH]nc2-c2cc3ccccc3s2)cc1: 0.0
3) Cn1c(NCCc2ccc(O)c(O)c2)nc2c1c(=O)n(Cc1ccc(Cl)c(Cl)c1)c(=O)n2C: 1.0
4) Cc1cc(N[C@@H]2CCC[C@H](Nc3ccnc4cc(Cl)ccc34)C2)nc(N2CCCCCC2)n1: 0.0
5) COc1ccc(S(=O)(=O)N2CCCCCC2)cc1NC(=O)c1[nH]c(C)c2c1CCCCC2=O: 0.0
6) CCCCCC(=O)Oc1ccc(/C(=C(\C)c2ccc(OC)cc2)c2ccc(OCCN3CCCCC3)cc2)cc1: 0.0
7) C=CCSSc1ncnc2c1ncn2C1OC(CO)C(O)C1O (stereo not given): 0.0
8) CC(O)CN1CC(O)=C(c2nc3ccccc3s2)C1=N (stereo not given): 1.0

Prompt line: Exam item: decide whether the reported growth for O=C1OCC2=C1C(c1ccncc1)c1cc3c(cc1N2CCO)OCO3 (stereo not given) is at least 50%.
Response line: 1.0

Prompt line: Exam item: decide whether the reported growth for Cc1nn(-c2cc(=O)[nH]c3ccc(Cl)cc23)c(N)c1C#N is at least 50%.
Response line: 1.0
